systemTested: Torsin-1A-interacting protein 2 (Homo sapiens)
procedureDetails: LULL1 binders on small-molecule microarray, primary screen, cell lysate, human LULL1 lysate, 635/667 nm fluorescence (AID 1092);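 further: probe is lysate of COS7 cells overexpressing human LULL1; score merges per-feature 667 nm fluorescence with signal-to-noise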
conditionNotes: hLULL1 lysate binding, 635 nm fluorescence, higher = more signal

| compound | composite z-score |
| --- | --- |
| O=C1OCC=C[C@H]2OC34C=CCN(c5ccc6ccccc6c5)C(=O)[C@H]3N(CCCO)C(=O)[C@@H]4[C@@H]12 (stereo not given in full) | -0.309 |
| COCCOC(=O)N1C(=O)[C@@]2(c3cc(C#CC4=CCCCC4)ccc31)[C@H](C(=O)N1CCc3cc(OC)c(OC)cc3C1)[C@H]1C(=O)O[C@H](c3ccccc3)[C@H](c3ccccc3)N1[C@@H]2c1ccccc1OCCO | 1.97 |
| C=C[C@H](COC(C)=O)N(Cc1ccc(OC(C)=O)c(OC)c1)S(=O)(=O)c1ccc(Br)cc1 | 1.81 |
| Cc1ccccc1C(O)C1C=CC2C(=O)N(C)C(=O)C2N1N1CCCCC1 (stereo not given) | 3.18 |
| O=c1oc(-c2ccccc2)nc2cc(Br)ccc12 | 0.711 |

---

Catalogue of composite z-score values
procedureDetails: small-molecule microarray binders of probe aLefty2, primary screen, biochemical, biotinylated probe, 635/667 nm fluorescence (AID 1094);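 further: score merges spot fluorescence near 667 nm with spot signal-to-noise ratio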
conditionNotes: higher = more signal

| compound | composite z-score |
| --- | --- |
| O=C1O[C@@H](c2ccccc2)[C@@H](c2ccccc2)N2[C@@H](c3ccc(O)cc3)[C@]3(C(=O)Nc4ccc(C#CC5=CCCCC5)cc43)[C@@H](C(=O)O)[C@H]12 | 0.246 |
| CCOC(=O)C1=CCC(C(C)(C)C)N(S(=O)(=O)c2ccc(C)cc2)C1 (centres undefined) | 0.0277 |
| O=C1O[C@H](c2ccccc2)[C@H](c2ccccc2)N2[C@H]1[C@@H](C(=O)NC[C@H](O)c1ccccc1)[C@]1(C(=O)Nc3ccc(C#CCCO)cc31)[C@H]2c1ccc(O)cc1 | 0.0249 |
| COc1ccc(CCNC(=O)[C@@]2(c3ccc([N+](=O)[O-])cc3)CC(=O)N(CC34CC5CC(CC(C5)C3)C4)[C@@H]2c2ccc(CO)cc2)cc1 | 0.257 |

---

Tested on: Sam68 (KHDRBS1)
procedureDetails: Sam68 small-molecule binders, primary screen, biochemical, small-molecule microarray, 635 nm fluorescence (AID 1125);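 further: score merges 667 nm channel intensity with signal to noise over triplicate slides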
conditionNotes: small-molecule microarray binding, higher = more signal
composite z-score listing for selected molecules.
measuredEndpoint: composite z-score

| molecule | valueReported |
| --- | --- |
| CO[C@H]1O[C@H](CO)[C@@H](OC(=O)Nc2ccc(Oc3ccccc3)cc2)[C@H](OC(=O)Nc2ccccc2)[C@H]1OC(=O)Nc1ccccc1 | 1.3 |
| C[N+](C)(C)CCCCCCNC(=O)[C@H]1C[C@H]2C(=O)N3CCC[C@H]3C(=O)N2[C@H]1c1ccc(O)cc1 | 0.485 |
| CC(C)(C)N1CC=CC23O[C@@H]4/C=C\CCCOC(=O)C4[C@H]2C(=O)N(CCO)[C@@H]3C1=O (some centres undefined) | -0.13 |
| C=CCN1C(=O)[C@]2(O[C@H](CCO)[C@@H]([Si](C)(C)c3ccc(OC)cc3)[C@@H]2C)c2cc(NC(=O)[C@H](C)O)ccc21 | 1.31 |
